# assay system: PLK4 (h) (Homo sapiens)
# test protocol: PLK-4 human kinase assay (SPA)
# Assay type: biochemical
# condition context: read-out: PLK4 pIC50 (converted)
Provide the recorded IC50 for the entries that follow.

Item COc1ccc2cc1OCCCC(=O)N(C)CCN(C)C1CCN(CC1)c1ncnc3c1/C(=C/N2)C(=O)N3 [Compound 34] has what recorded IC50? > 10 µM

Item: CN1CCNc2ncnc3c2/C(=C/Nc2cccc(c2)CN(C)CC(=O)N(C)CC1)C(=O)N3 [Compound 149] 5.01 µM

Item: CN1CCCCCCC(=O)N(C)CCNc2ncnc3c2/C(=C/Nc2cccc(c2)C1)C(=O)N3 [Compound 83] 1.66 µM

Item: COCCN1CCOc2cccc(c2)N/C=C2\C(=O)Nc3ncnc(c32)NCCN(C)C(=O)C1 [Compound 161] 5.13 µM

Item: COc1ccc2cc1OCC(=O)N(C)CCCCNc1ncnc3c1/C(=C/N2)C(=O)N3 [Compound 151] 3.47 µM

Item: CN1CCCCC(=O)N(C)CCCNc2ncnc3c2/C(=C/Nc2ccc(N4CCOCC4)c(c2)C1)C(=O)N3 [Compound 96] 0.741 µM

Item: COCCN1CCCOc2cc(ccc2Cl)N/C=C2\C(=O)Nc3ncnc(c32)N2CCN(CC2)C(=O)C1 [Compound 180] > 10 µM

Item: CN1CCCN(C)c2ncnc3c2/C(=C/Nc2cccc(c2)OCCCCCCC1=O)C(=O)N3 [Compound 53] 2.34 µM

----------
# assay system: AuroraB (h) (Homo sapiens, UniProt Q96GD4)
# Sequence (Q96GD4 whole entry): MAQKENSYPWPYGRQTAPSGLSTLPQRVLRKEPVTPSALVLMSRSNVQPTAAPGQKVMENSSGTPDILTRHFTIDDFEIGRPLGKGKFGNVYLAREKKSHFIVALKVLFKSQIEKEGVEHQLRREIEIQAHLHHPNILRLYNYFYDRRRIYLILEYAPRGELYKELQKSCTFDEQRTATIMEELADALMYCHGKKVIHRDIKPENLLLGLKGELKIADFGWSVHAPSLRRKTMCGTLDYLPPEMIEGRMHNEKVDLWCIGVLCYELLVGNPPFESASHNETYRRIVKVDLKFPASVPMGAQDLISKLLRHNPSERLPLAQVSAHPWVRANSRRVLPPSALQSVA
# test protocol: Aurora-B human kinase assay (SPA)
# Assay type: biochemical
# condition context: read-out: AuroraB pIC50 (converted)
Provide the recorded IC50 for the entries that follow.

Item `CN1CCCCC(=O)N(C)CCNc2ncnc3c2/C(=C/Nc2ccc(N4CCOCC4)c(c2)C1)C(=O)N3` has what recorded IC50? > 10 µM

Item: `COc1cc2cc(c1OC)CN(C)CC(=O)N(C)CCNc1ncnc3c1/C(=C/N2)C(=O)N3` > 10 µM

Item: `COc1ccc2cc1CN(C)CC(=O)N(C)CCCCNc1ncnc3c1/C(=C/N2)C(=O)N3` > 10 µM

Item: `C[C@@H]1CN(C)CCCNc2ncnc3c2/C(=C/Nc2cccc(c2)OCC(=O)N1)C(=O)N3` > 10 µM

Item: `CN1CCCNc2ncnc3c2/C(=C/Nc2ccc(NC(=O)Nc4ccccc4)c(c2)OCCCC1=O)C(=O)N3` 0.331 µM

Item: `CN1CCNc2ncnc3c2/C(=C/Nc2ccc(Cl)c(c2)OCCCCCC1=O)C(=O)N3` 1.07 µM

Item: `CN1CCCNc2ncnc3c2/C(=C/Nc2cccc(c2)OCCN(C)[C@H](CO)C1=O)C(=O)N3` 6.46 µM

Item: `CN1CCNC(=O)CCCOc2cc(ccc2Cl)N/C=C2\C(=O)Nc3ncnc1c32` > 10 µM

Item: `CN1CCCNc2ncnc3c2/C(=C/Nc2ccc(Cl)c(c2)OCCCCCC1=O)C(=O)N3` 0.794 µM

Item: `COCCN1CCOc2cc(ccc2Cl)N/C=C2\C(=O)Nc3ncnc(c32)NCCCN(C)C(=O)C1` > 10 µM

Item: `COc1ccc2cc1OCCCCCC(=O)N(C)CCCN(C)c1ncnc3c1/C(=C/N2)C(=O)N3` > 10 µM

Item: `CN1CCCC(=O)N(C)CCNc2ncnc3c2/C(=C/Nc2ccc(N4CCOCC4)c(c2)C1)C(=O)N3` > 10 µM

Item: `CN1CCCC(=O)N(C)CCCN(C)c2ncnc3c2/C(=C/Nc2ccc(Cl)c(c2)C1)C(=O)N3` > 10 µM

Item: `CN1CCCNc2ncnc3c2/C(=C/Nc2ccc(NS(=O)(=O)c4ccccc4)c(c2)OCCCC1=O)C(=O)N3` 0.0912 µM

Item: `CN1CCCCCC(=O)N(C)CCCNc2ncnc3c2/C(=C/Nc2cccc(c2)C1)C(=O)N3` > 10 µM

Item: `COc1cc2cc(c1OC)CN(C)CC(=O)N(C)CCCNc1ncnc3c1/C(=C/N2)C(=O)N3` > 10 µM

Item: `COc1ccc2cc1OCCCCCCC(=O)NCCN(C)c1ncnc3c1/C(=C/N2)C(=O)N3` 8.71 µM

Item: `CN1CCN(c2ccc3cc2CN(C)CCCC(=O)N(C)CCCNc2ncnc4c2/C(=C/N3)C(=O)N4)CC1` > 10 µM

Item: `COc1cc2cc(c1OC)CN(C)CCCCC(=O)N(C)CCNc1ncnc3c1/C(=C/N2)C(=O)N3` > 10 µM

Item: `CN1CCCNc2ncnc3c2/C(=C/Nc2ccc(Cl)c(c2)OCCCCC1=O)C(=O)N3` 0.0513 µM

Item: `CN1CCNc2ncnc3c2/C(=C/Nc2cccc(c2)OCC(=O)N(C)CC1)C(=O)N3` 4.47 µM

Item: `CN1CCCCCC(=O)N(C)CCNc2ncnc3c2/C(=C/Nc2cccc(c2)C1)C(=O)N3` > 10 µM

Item: `CN1CCNc2ncnc3c2/C(=C/Nc2ccc(Cl)c(c2)OCCCCC1=O)C(=O)N3` 0.759 µM

Item: `COc1cc2cc(c1OC)CN(C)CCCC(=O)N(C)CCNc1ncnc3c1/C(=C/N2)C(=O)N3` > 10 µM

Item: `CN1CCNC(=O)CCCOc2cccc(c2)N/C=C2\C(=O)Nc3ncnc1c32` 8.32 µM

Item: `N#Cc1ccc2cc1OCCCC(=O)N1CCN(CC1)c1ncnc3c1/C(=C/N2)C(=O)N3` > 10 µM

Item: `CN1CCNc2ncnc3c2/C(=C/Nc2ccc(Cl)c(c2)OCCCC1=O)C(=O)N3` 0.891 µM

Item: O=C1Nc2ncnc3c2C1=CNc1cc(ccc1Cl)OCCCCC(=O)N1CCN3CC1 (mixture of isomers) > 10 µM

Item: `COc1ccc2cc1CN(C)CCCCCCC(=O)NCCN(C)c1ncnc3c1/C(=C/N2)C(=O)N3` > 10 µM

Item: `O=C1Nc2ncnc3c2/C1=C/Nc1cccc(c1)OCCN1C[C@H](O)C[C@@H]1C(=O)N1CCN3CC1` > 10 µM

Item: `N#Cc1ccc2cc1OCCCCC(=O)N1CCN(CC1)c1ncnc3c1/C(=C/N2)C(=O)N3` > 10 µM

----------
# assay system: PLK4 (h) (Homo sapiens, UniProt O00444)
# Sequence (O00444 whole entry): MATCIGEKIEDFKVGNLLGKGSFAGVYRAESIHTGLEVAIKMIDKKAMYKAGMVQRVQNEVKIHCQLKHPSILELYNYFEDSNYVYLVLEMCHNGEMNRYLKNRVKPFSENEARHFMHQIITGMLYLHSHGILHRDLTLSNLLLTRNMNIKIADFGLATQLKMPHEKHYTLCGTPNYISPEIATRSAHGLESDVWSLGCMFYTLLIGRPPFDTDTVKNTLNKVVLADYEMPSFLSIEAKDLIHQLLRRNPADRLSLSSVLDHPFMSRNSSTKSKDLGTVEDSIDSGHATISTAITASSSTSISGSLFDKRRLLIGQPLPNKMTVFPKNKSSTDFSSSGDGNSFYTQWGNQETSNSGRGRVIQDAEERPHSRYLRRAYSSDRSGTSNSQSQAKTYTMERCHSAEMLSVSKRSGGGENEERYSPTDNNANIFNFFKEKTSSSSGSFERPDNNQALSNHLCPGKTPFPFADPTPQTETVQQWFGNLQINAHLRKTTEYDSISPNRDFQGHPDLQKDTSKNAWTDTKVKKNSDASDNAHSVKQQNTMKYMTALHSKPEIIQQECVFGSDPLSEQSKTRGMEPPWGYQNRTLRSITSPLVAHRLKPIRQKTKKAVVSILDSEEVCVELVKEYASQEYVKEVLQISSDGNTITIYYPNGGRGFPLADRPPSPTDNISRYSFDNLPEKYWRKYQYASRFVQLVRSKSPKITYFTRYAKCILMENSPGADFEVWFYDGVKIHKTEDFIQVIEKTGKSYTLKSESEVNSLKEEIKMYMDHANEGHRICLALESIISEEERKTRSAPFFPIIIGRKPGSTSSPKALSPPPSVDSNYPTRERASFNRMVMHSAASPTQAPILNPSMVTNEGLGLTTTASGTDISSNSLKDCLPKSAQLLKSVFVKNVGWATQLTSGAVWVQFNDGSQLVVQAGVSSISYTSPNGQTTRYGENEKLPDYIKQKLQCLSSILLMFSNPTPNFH
# test protocol: PLK-4 human kinase assay (SPA)
# Type: biochemical
quantity: PLK4 pIC50
// no unit, no text: just the number

Item CN1CCN(c2ccc3cc2OCCCCC(=O)N(C)CCCNc2ncnc4c2C(=CN3)C(=O)N4)CC1 (mixture of isomers) [Compound 136] has what recorded PLK4 pIC50? 7.19

Item: CN1CCCNc2ncnc3c2C(=CNc2ccc(N4CCOCC4)c(c2)OCCCC1=O)C(=O)N3 (mixture of isomers) [Compound 124] 7.34

Item: CN1CCN(c2ccc3cc2CN(C)CCCCCC(=O)N(C)CCCNc2ncnc4c2C(=CN3)C(=O)N4)CC1 (mixture of isomers) [Compound 117] 6.5

Item: COc1cc2cc(c1OC)OCCCCC(=O)N(C)CCCNc1ncnc3c1C(=CN2)C(=O)N3 (mixture of isomers) [Compound 134] 6.6

Item: COc1ccc2cc1OCCCC(=O)NCCCNc1ncnc3c1C(=CN2)C(=O)N3 (mixture of isomers) [Compound 146] 7.34

----------
# assay system: PLK4 (h) (Homo sapiens, UniProt O00444)
# test protocol: PLK-4 human kinase assay (SPA)
# Type: biochemical
# condition context: read-out: PLK4 pIC50 (converted)
Label fulfilled when IC50 < 5 µM; otherwise not fulfilled.

Threshold test, IC50 < 5 µM: `CN1CCCOc2cc(ccc2Cl)N/C=C2\C(=O)Nc3ncnc(c32)N2CCN(CC2)C(=O)[C@H]1CO` not fulfilled

Item: `CN1CCCC(=O)NCC#Cc2cccc3c2/C(=C/Nc2cccc(c2)S(=O)(=O)N(C)CC1=O)C(=O)N3` fulfilled

Item: `CN1CCNc2ncnc3c2/C(=C/Nc2ccc(Cl)c(c2)OCCCN(C)[C@H](CO)C1=O)C(=O)N3` not fulfilled

Item: `CN1CCCC(=O)N(C)CCCN(C)c2ncnc3c2/C(=C/Nc2ccc(Cl)c(c2)C1)C(=O)N3` not fulfilled

Item: CCN1CCCCCC(=O)N2CCN(CC2)c2cccc3c2C(=CNc2cccc(c2)S(=O)(=O)N(C)CC1=O)C(=O)N3 (mixture of isomers) not fulfilled

Item: `CN1CCNc2ncnc3c2/C(=C/Nc2ccc(Cl)c(c2)OCC(=O)N2CCC[C@@H]2C1)C(=O)N3` not fulfilled

Item: `COc1ccc2cc1OCCCC(=O)N1CCN(CC1)c1ncnc3c1/C(=C/N2)C(=O)N3` fulfilled

Item: `COc1cc2cc(c1OC)CN(C)CC(=O)N(C)CCNc1ncnc3c1/C(=C/N2)C(=O)N3` not fulfilled

Item: `CN1CCCNc2ncnc3c2/C(=C/Nc2ccc(Cl)c(c2)OCCCCC1=O)C(=O)N3` fulfilled

Item: `CN1CCCNc2ncnc3c2/C(=C/Nc2ccc(NC(=O)c4ccccc4)c(c2)OCCCC1=O)C(=O)N3` fulfilled

Item: `COc1ccc2cc1OCCCCC(=O)N(C)CCNc1ncnc3c1/C(=C/N2)C(=O)N3` fulfilled

Item: `CN1CCCC(=O)N(C)CCCNc2ncnc3c2/C(=C/Nc2ccc(N4CCOCC4)c(c2)C1)C(=O)N3` fulfilled

Item: `CN1CCCNc2ncnc3c2/C(=C/Nc2cccc(c2)OCC(=O)N2CCC[C@@H]2C1)C(=O)N3` not fulfilled
